B1: F1*; the commonest letter at each place (parent)
chain: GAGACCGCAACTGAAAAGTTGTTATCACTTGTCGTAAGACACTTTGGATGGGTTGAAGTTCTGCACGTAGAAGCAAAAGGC

variants of: B1; test: fraction ligated after 30 min (ligated reads / total reads); higher = more ligase activity; settings: with F1*sub RNA substrate (template-directed ligation), 42 °C
// false (0) strictly below 0.8 in fraction ligated; true (1) otherwise

INSERT INTO assay_data (sequence_input, answer_label) VALUES
  ('GAGACCGCAACTGAAAAGTTGTTATCACTTGTCGTAAGACACTGTGGATAGGTTGAAGTTCTGCACGTAGAAGCAAAAGGC', 'false (0)'),
  ('GAGACCGCAACTGAAAAGTTGTTACCAATTGTCGTAAGACACTTTGGATGGGTTGAAGTTCTGCACGTAGAAGCAAAAGGC', 'false (0)'),
  ('GAGACCGCAACTGAAAAGTTGTTATCACTTGTCGGAAGACACTTCGGATGGGTTGAAGTTCTGCACGTAGAAGCAAAAGGC', 'false (0)'),
  ('GAGACCGCAACTGAAAAGTTGTTATCCCTCGTCGTAAGACACTTTGGATGGGTTGAAGTTCTGCACGTAGAAGCAAAAGGC', 'false (0)'),
  ('GAGACCGCAACTGAAAAGTTGTTGACACTTGTCGTAAGACACTTTGGATGGGTTGAAGTTCTGCACGTAGAAGCAAAAGGC', 'false (0)'),
  ('GAGACCGCAACTGAAAAGTTGTTATCACTTGTCGTAAGTCACTTTGGATGGGTTGAAGTTCTGCACGTAGAAGCAAAAGGC', 'true (1)'),
  ('GAGACCGCAACTGAAAAGTTGTTATCAATTGTCGTAAGACACTTTGGAGGGGTTGAAGTTCTGCACGTAGAAGCAAAAGGC', 'false (0)'),
  ('GAGACCGCAACTGAAAAGTTGTTATCACTTGTCGTAAGAGACTTGGGATGGGTTGAAGTTCTGCACGTAGAAGCAAAAGGC', 'false (0)'),
  ('GAGACCGCAACTGAAAAGTTGTTATCACTTGTCGTAAGACACGTTGGATGGGTTGTAGTTCTGCACGTAGAAGCAAAAGGC', 'false (0)'),
  ('GAGACCGCAACTGAAAAGTTGTTATCACTTGTGGTTAGACACTTTGGATGGGTTGAAGTTCTGCACGTAGAAGCAAAAGGC', 'true (1)'),
  ('GAGACCGCAACTGAAAAGTTGTTATCACTTGTCGTAAGAAACTTCGGATGGGTTGAAGTTCTGCACGTAGAAGCAAAAGGC', 'false (0)'),
  ('GAGACCGCAACTGAAAAGTTGTTATCACTTATCGTAAGACACTTTAGATGGGTTGAAGTTCTGCACGTAGAAGCAAAAGGC', 'true (1)'),
  ('GAGACCGCAACTGAAAAGTTGTTATCACTTGTCGTTAGACAATTTGGATGGGTTGAAGTTCTGCACGTAGAAGCAAAAGGC', 'true (1)'),
  ('GAGACCGCAACTGAAAAGTTGTTATCACTTGTCGTAAGACAGTTGGGATGGGTTGAAGTTCTGCACGTAGAAGCAAAAGGC', 'false (0)'),
  ('GAGACCGCAACTGAAAAGTTGTTATCACTTGTCGTAAGACACTTTGGATGGGTTTGGGTTCTGCACGTAGAAGCAAAAGGC', 'false (0)'),
  ('GAGACCGCAACTGAAAAGTTGTTATCACTTGTAGCAAGACACTTTGGATGGGTTGAAGTTCTGCACGTAGAAGCAAAAGGC', 'true (1)'),
  ('GAGACCGCAACTGAAAAGTTGTTATCACTTGTCGTTAGACACTTTGGCTGGGTTGAAGTTCTGCACGTAGAAGCAAAAGGC', 'false (0)'),
  ('GAGACCGCAACTGAAAAGTTGTTATCACTTGTCGTGAGACACTTTGGAGGGGTTGAAGTTCTGCACGTAGAAGCAAAAGGC', 'false (0)'),
  ('GAGACCGCAACTGAAAAGTTGTTATCACTTGTCGTTAGACACTTTGTATGGGTTGAAGTTCTGCACGTAGAAGCAAAAGGC', 'false (0)'),
  ('GAGACCGCAACTGAAAAGTTGTTATCACTTGTCGTAAGACACTTTGGATCGGTTGATGTTCTGCACGTAGAAGCAAAAGGC', 'false (0)'),
  ('GAGACCGCAACTGAAAAGTTGTTATCACTTGGCCTAAGACACTTTGGATGGGTTGAAGTTCTGCACGTAGAAGCAAAAGGC', 'false (0)'),
  ('GAGACCGCAACTGAAAAGTTGTTAACACTTGTCGTAAGCCACTTTGGATGGGTTGAAGTTCTGCACGTAGAAGCAAAAGGC', 'false (0)'),
  ('GAGACCGCAACTGAAAAGTTGTTGTCACTTATCGTAAGACACTTTGGATGGGTTGAAGTTCTGCACGTAGAAGCAAAAGGC', 'false (0)'),
  ('GAGACCGCAACTGAAAAGTTGTTATCACTTGTCGTAAGACACTTCGGATGGGTTGAAGTTCTGCACGTAGAAGCAAAAGGC', 'false (0)'),
  ('GAGACCGCAACTGAAAAGTTGTTAGCACTTGTCGTAAGACACATTGGATGGGTTGAAGTTCTGCACGTAGAAGCAAAAGGC', 'false (0)'),
  ('GAGACCGCAACTGAAAAGTTGTTATCACATGTCGTAAGACACGTTGGATGGGTTGAAGTTCTGCACGTAGAAGCAAAAGGC', 'true (1)'),
  ('GAGACCGCAACTGAAAAGTTGTTATCACTTGTCGTAAGACACTTTGGAAGGGTTGATGTTCTGCACGTAGAAGCAAAAGGC', 'false (0)');
